pIC50: −log10 of the molar value.
Parameter pIC50, tested on Voltage-gated inwardly rectifying potassium channel KCNH2 (Homo sapiens, UniProt Q12809), listed per item.
Sequence (Q12809 whole entry): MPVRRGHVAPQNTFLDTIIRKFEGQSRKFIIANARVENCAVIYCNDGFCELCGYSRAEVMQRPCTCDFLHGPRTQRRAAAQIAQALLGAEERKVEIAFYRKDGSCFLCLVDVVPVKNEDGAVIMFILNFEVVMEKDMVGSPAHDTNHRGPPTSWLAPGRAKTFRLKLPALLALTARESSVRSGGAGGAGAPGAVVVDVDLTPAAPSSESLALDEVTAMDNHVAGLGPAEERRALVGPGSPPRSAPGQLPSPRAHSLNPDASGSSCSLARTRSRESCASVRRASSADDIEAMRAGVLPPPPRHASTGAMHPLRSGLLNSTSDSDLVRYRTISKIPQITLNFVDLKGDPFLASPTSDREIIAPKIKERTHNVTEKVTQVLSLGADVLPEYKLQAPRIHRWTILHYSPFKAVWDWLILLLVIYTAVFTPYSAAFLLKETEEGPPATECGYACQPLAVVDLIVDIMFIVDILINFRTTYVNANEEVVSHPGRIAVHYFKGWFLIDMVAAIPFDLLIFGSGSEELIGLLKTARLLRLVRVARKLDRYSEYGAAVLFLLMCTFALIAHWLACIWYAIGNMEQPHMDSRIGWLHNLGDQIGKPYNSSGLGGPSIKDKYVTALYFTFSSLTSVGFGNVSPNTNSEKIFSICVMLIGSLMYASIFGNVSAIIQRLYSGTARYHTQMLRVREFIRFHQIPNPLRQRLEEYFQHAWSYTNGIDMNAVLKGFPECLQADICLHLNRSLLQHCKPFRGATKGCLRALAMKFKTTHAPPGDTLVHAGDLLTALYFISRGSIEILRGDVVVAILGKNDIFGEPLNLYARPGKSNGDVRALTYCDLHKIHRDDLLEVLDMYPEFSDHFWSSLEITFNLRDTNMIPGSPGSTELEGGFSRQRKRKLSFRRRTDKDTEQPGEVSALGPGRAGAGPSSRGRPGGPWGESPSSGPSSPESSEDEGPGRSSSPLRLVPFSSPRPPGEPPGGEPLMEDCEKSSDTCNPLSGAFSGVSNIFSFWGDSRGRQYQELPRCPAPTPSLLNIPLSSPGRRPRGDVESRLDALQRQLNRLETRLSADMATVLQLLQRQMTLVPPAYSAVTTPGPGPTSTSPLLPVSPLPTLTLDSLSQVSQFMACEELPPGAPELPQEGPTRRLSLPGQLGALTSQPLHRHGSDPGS
Measured Metric: pIC50

{"Chem Smiles": "Cc1cc2c(s1)Nc1ccccc1N=C2N1CCN(C)CC1", "Measured Metric": "pIC50", "Endpoint Result": 6.64}
{"Chem Smiles": "CC(=O)Nc1cccc(N2CCN(CCCCNS(=O)(=O)CC3CCCCC3)CC2)c1", "Measured Metric": "pIC50", "Endpoint Result": 5.42}
{"Chem Smiles": "CN1Cc2cncn2Cc2ccc(C#N)c(c2)Oc2ccc3c(c2)[C@@H](CC3)N2CC[C@@H]1C2=O", "Measured Metric": "pIC50", "Endpoint Result": 5.59}
{"Chem Smiles": "C[N+]1([O-])CCN(C2=Nc3cc(Cl)ccc3Nc3ccccc32)CC1", "Measured Metric": "pIC50", "Endpoint Result": 3.88}

----------
# Test Target: hERG (KCNH2) (Homo sapiens, UniProt Q12809)
# Experiment: Inhibition of human ERG channel at 300 uM

{"Compound": "Cc1nnc(C(C)C)n1C1CC2CCC(C1)N2CC[C@H](NC(=O)C1CCCC1)c1ccccc1 (stereo partly drawn)", "inhibition at 300 µM": "18%"}
{"Compound": "Cc1nnc(C(C)C)n1C1CC2CCC(C1)N2CC[C@H](NC(=O)C1CCC1)c1ccccc1 (stereo partly drawn)", "inhibition at 300 µM": "30%"}
{"Compound": "Cc1nnc(C(C)C)n1C1CC2CCC(C1)N2CC[C@H](NC(=O)CCC(F)(F)F)c1ccccc1 (stereo partly drawn)", "inhibition at 300 µM": "14%"}

----------
Parameter Ki, tested on Voltage-gated inwardly rectifying potassium channel KCNH2 (Homo sapiens), listed per item.

{"Molecule": "Fc1ccc2[nH]c(-c3ccccc3)c([C@@H]3CNCC[C@H]3F)c2c1", "Test Target": "Voltage-gated inwardly rectifying potassium channel KCNH2 (Homo sapiens)", "Ki [µM]": 7}
{"Molecule": "c1ccc(-c2[nH]c3ccccc3c2C2CC3CCC(C2)N3)cc1 (configuration not stated)", "Test Target": "Voltage-gated inwardly rectifying potassium channel KCNH2 (Homo sapiens)", "Ki [µM]": 0.018}

----------
# Test Target: UniProtKB Q12809
# Experiment: Inhibition of human ERG channel
# Condition: human
pKi: −log10 of the molar value.
Measured Metric: pKi

{"Compound": "Fc1ccc2c([C@@H]3CNCC[C@H]3F)c(-c3ccc4ccccc4c3)[nH]c2c1", "Test Target": "UniProtKB Q12809", "Endpoint Result": 6.30}
{"Compound": "Fc1ccc2c([C@@H]3CNCC[C@H]3F)c(-c3ccsc3)[nH]c2c1", "Test Target": "UniProtKB Q12809", "Endpoint Result": 5.82}
{"Compound": "CN1CCCC(c2c(-c3ccccc3)[nH]c3ccccc23)C1 (configuration not stated)", "Test Target": "UniProtKB Q12809", "Endpoint Result": 5.02}
{"Compound": "Fc1ccc2c([C@@H]3CNCC[C@H]3F)c(-c3cccc4ccccc34)[nH]c2c1", "Test Target": "UniProtKB Q12809", "Endpoint Result": 6.96}
{"Compound": "Fc1ccc(-c2[nH]c3cc(F)ccc3c2C2CCCNC2)cc1 (configuration not stated)", "Test Target": "UniProtKB Q12809", "Endpoint Result": 5.89}
{"Compound": "c1ccc(-c2[nH]c3ccccc3c2C2CCNCC2)cc1", "Test Target": "UniProtKB Q12809", "Endpoint Result": 5.24}
{"Compound": "Fc1ccc(-c2[nH]c3cc(F)ccc3c2[C@@H]2CNCC[C@H]2F)cc1", "Test Target": "UniProtKB Q12809", "Endpoint Result": 5.80}

----------
# Test Target: hERG (KCNH2) (Homo sapiens, UniProt Q12809)
# Experiment: Inhibition of human ERG channel at 3 uM

{"Chem Smiles": "CC(C)(CO)NC(=O)[C@H]1CC[C@H](c2nc(-c3cccc(C(F)(F)F)c3)c[nH]2)CC1", "Unit Of Measure": "%", "inhibition at 3 µM": 6}

src = ChEMBL document CHEMBL1137783
